Values were extracted from the supplement of paper PMC9170038.

Here the recorded apparent KD of MS2 coat protein is given for each entry.
# Tested on: MS2 coat protein
# test.description: apparent KD of MS2 coat protein; designed switch direction (-1 OFF switch, 1 ON switch): -1; higher = weaker reporter binding
# assay.setup: input ligand: microRNA oligo, concentration not stated
Could you give me the number in nM? Just the number is fine.

**Query** Given the entry AGCUGUGGCCGAGGAUAUCUAAUAACUCAAACCGAAAUAUAAUCGGACAUGAGGAUCACCCAUGUAGAGAAGGCGGUCUCAGCA [Eli eng2 - 063] (Eterna round: R96, puzzle: Exclusion NG 2) , report its measured apparent KD of MS2 coat protein.
**Result** 69.8

**Query** Given the entry GUCAGCUCGUGAGGAUAUACAUGAUAGAUCGAUUAAUUAAUUAAUUUAACAUGAGGAUCACCCAUGUAGAAGGUACGAGCUGAU [ENG2/1-C2] (Eterna round: R96, puzzle: Exclusion NG 2) , report its measured apparent KD of MS2 coat protein.
**Result** 40.1

**Query** Given the entry UUGUUGUAUGUAGGAUAUGCAUAUUAUUAUUAUGCAGAAGGACAUGAGGAUCACCCAUGUAUGUUAUUAUUAUAUGUUAUGUGU [Title] (Eterna round: R96, puzzle: Exclusion NG 1) , report its measured apparent KD of MS2 coat protein.
**Result** 32

**Query** Given the entry UCAGUUCUGCAAGGAUAUCGUCCUAGUUUGGUUCGAGAAGGUGCUUUUGUUUUUUCUUUGUGUUGACAUGAGGAUCACCCAUGU [JR_ExcNG1_Sub053] (Eterna round: R96, puzzle: Exclusion NG 1) , report its measured apparent KD of MS2 coat protein.
**Result** 13.8

As a next step, examine the sequence that follows.
**Query** Given the entry AGUACUAUCACGAAAGUGAUAGUACAAUAAGCAAGUGAAACAUGAGGAUCACCCAUGUCCUCAUUUGCUCGUCUUAU [JL turnoff v2 74] (Eterna round: R96, puzzle: Sensor v2, turn-off variant 2) , report its measured apparent KD of MS2 coat protein.
**Result** 400

###

# System: MS2 coat protein
# test.description: apparent KD of MS2 coat protein; designed switch direction (-1 OFF switch, 1 ON switch): 1; higher = weaker reporter binding
# assay.setup: input ligand: FMN 200 uM
assay.endpoint: apparent KD of MS2 coat protein
Your reply should be a number followed by the unit it is expressed in.

**Query** Given the entry GUACAGAUCAGAGGAUAUCACGUCGAUUAGACGUGAGAAGGCUGAUCACACAUGAAUAUUAGUACAUGAGGAUCACCCAUGUAC [SSNG1/15-A2] (Eterna round: R96, puzzle: Same State NG 1) , report its measured apparent KD of MS2 coat protein.
**Result** 14 nM

New cases:
**Query** Given the entry GUAAUAAUGUAAGGAUAUACAUGAGGAUUUCUCGUAGAAGGUACAAGACAUGAGGAUCACCCAUGUGUCGCUCAGAAGAGCGUA [Mat - Same State NG 1 - JL mod - D16] (Eterna round: R96, puzzle: Same State NG 1) , report its measured apparent KD of MS2 coat protein.
**Result** 279 nM

###

# Test system: K4 kissing-loop RNA reporter;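 note: bound reporter read as fluorescence of individual clusters on recovered sequencing chips by microscopy, with normalized cluster intensities fitted with a binding model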
# test.description: apparent KD of K4 kissing-loop reporter; higher = weaker reporter binding
# assay.setup: Eterna round: R107; input ligand: theophylline 20 uM
Here the recorded apparent KD of K4 kissing-loop reporter is given for each entry.

# annotated cases, reported apparent KD of K4 kissing-loop reporter shown
**Query** Given the entry UGACUGGACUGAAGGAGCGUUCAGGUAGGUCGCUAAGGAGUGAUGUUCCAUAGAAGGAGCGAACAGGUAGGUCGCAGUCUAGUCU [ArgBS 29 #DoubleAptamer #SwitchBubble] , report its measured apparent KD of K4 kissing-loop reporter.
**Result** 190 nM

**Query** Given the entry CCAUCGCUAUUCGAUACCAGCUACUUAGUGAUGUUAAGUUUUUACCCACUGUAGGUGGGAAGCCCUUGGCAGCGAAUAGUGAUGG [Theophylline B K4 27] , report its measured apparent KD of K4 kissing-loop reporter.
**Result** 151 nM

New cases:
**Query** Given the entry CGUUUAUAGCAGGAUACCAGUACCCAUAAAGUACGUUAAUAGUAGAGUGAUGUUCUAAAGUACCCUUGGCAGCUUCCCGUGACCG [ExTheophylB.V] , report its measured apparent KD of K4 kissing-loop reporter.
**Result** 142 nM

**Query** Given the entry GGGAGUAUUGCGGCCGCCACUGAGGAAGAAGAAGGCCAUAGUGAUGUUAUGGAGGAAAGGAAGAACAGGACCGGGCAGUAGAUUU [#22 K4 Tryptophan B Same State] , report its measured apparent KD of K4 kissing-loop reporter.
**Result** 188 nM

**Query** Given the entry AAACAUUGGUCUGAUACCAGUUAGACCGAUAGGUCAAAACUGGAGUGAUGUUCCUAAAAUAACCCUUGGCAGCAGACCGAUGAAA [MAT - Same State Theophlline B - Mod of Eli - D4] , report its measured apparent KD of K4 kissing-loop reporter.
**Result** 439 nM

**Query** Given the entry UGUACCGAGUCAGGAUAUGGUAUACCGGAAACGGACCAGUGAUGUUGGAGGCGAAAGCCAUAAAAUCCAGAAGGGACUUGGUACU [FmnBS 19 #SwitchBubble #StaticStem #DoubleMagnetSystem] , report its measured apparent KD of K4 kissing-loop reporter.
**Result** 893 nM

**Query** Given the entry AAGGCGUCGAGUUUGGUGGCGCCAACAGAUACCAGAUUACCUCCAAUCCCUUGGCAGCUGGCUUGAGAGUGAUGUUUUCAAAAGU [theeternabot_sameState_KL_Theo_A_33] , report its measured apparent KD of K4 kissing-loop reporter.
**Result** 528 nM

**Query** Given the entry "UCCGGUCGGUGAGCCAGUGAUGUUGGUCAGAAGGAUAUCUGGCAACAGAGAAGGUCUGCAUCAGCCUAGAUAUCCUGGCGACCGG" , report its measured apparent KD of K4 kissing-loop reporter.
**Result** 84.2 nM

**Query** Given the entry GCAGUGAUGUUGCUGAUGUGCAGUGGUAGUCGAGGACCGGUACGGCCGCCACUCGGUGAGAAUUUGUUAAUACAUCGAUAAGUGA [XVI] , report its measured apparent KD of K4 kissing-loop reporter.
**Result** 509 nM

**Query** Given the entry GCAGUGAUGUUGCGGAUGUACAGUGGCGUGCGAGGACCGGUACGGCCGCCACUCGUACAGACCAAGCUAAUACAUCGAUAGGUGA [whbob_SS_Tryp_A_m3] , report its measured apparent KD of K4 kissing-loop reporter.
**Result** 287 nM

**Query** Given the entry GUGCAGUGAUGUUGCACGAGGAAAGACGAUACCAGCCGUAAAUAAGGCCCUUGGCAGCGUAGGCUAGCAUAAAGCAUGCUAGUCC [Edeson] , report its measured apparent KD of K4 kissing-loop reporter.
**Result** 98.4 nM
